Measured values drawn from patent US20260152557A1 for this set.

biological target: T1, cynomolgus CD3εδ-Fc heterodimer (Cy CD3ε Fc / CD3δ Fc-HIS) (cynomolgus, UniProt Q95LI8 22-100); test: BLI (Octet), yeast-produced IgG on AHC sensor, CD3εδ-Fc 100 nM in solution, pH 7.4
T1 construct: range 22-100; Produced in HEK 293 cells; also called Cy CD3εδ Fc heterodimer; not shown: Fc-HIS part of CD3δ Fc-HIS
T1 sequence (chain, as listed by the source mutant, form in doubt, chain 1 of 2): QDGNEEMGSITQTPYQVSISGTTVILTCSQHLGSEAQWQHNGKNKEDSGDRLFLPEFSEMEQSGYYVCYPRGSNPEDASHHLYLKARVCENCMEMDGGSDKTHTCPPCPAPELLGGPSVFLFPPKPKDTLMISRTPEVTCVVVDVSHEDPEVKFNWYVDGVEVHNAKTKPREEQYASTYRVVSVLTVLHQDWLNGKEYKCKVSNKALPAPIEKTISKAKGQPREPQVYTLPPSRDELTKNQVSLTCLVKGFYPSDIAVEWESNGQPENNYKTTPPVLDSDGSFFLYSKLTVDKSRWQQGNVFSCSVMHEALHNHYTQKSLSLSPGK
T1 sequence (Q95LI8 22-100, stated change not applied, form in doubt, chain 2 of 2): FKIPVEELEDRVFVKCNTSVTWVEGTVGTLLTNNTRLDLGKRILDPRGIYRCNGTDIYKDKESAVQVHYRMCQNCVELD
pKd: −log10 of the molar value.
# binarize pKd: threshold 8 inclusive, high side met, low side not met

// known answers, use as guide
ADI-74967 (Antibody No. 5), human IgG1 (antibody, V domains shown, Tested as human IgG1 (yeast-produced aglycosylated, or CHO-produced)) VH: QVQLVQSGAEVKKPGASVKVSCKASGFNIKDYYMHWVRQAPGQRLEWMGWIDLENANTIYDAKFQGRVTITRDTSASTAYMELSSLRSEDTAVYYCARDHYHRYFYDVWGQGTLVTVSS VL: GIVMTQSPDSLAVSLGERATINCKSSQSLLNARTGKNYLAWYQQKPGQPPKLLIYWASTRESGVPDRFSGSGSGTDFTLTISSLQAEDVAVYYCKQSHSHRTFGGGTKVEIK : not met
ADI-26906 (Antibody No. 1), human IgG1 (antibody, V domains shown, Non-pH-dependent parent; Tested as human IgG1 (yeast-produced aglycosylated, or CHO-produced); also called Ab No. 1) VH: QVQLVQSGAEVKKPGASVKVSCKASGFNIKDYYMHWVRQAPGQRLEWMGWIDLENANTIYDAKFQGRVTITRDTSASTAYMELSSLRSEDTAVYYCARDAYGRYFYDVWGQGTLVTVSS VL: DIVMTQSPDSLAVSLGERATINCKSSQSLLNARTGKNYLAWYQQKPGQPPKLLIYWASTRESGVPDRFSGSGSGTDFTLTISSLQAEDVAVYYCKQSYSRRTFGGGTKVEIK : met

Turning now to a further record.
Query: Is reported pKd greater than or equal to 8 here: ADI-79842 (Antibody No. 7), human IgG1 (antibody, V domains shown, Tested as yeast-produced aglycosylated human IgG1) VH: QVQLVQSGAEVKKPGASVKVSCKASGFNIKDYYMHWVRQAPGQRLEWMGWIDLENANTIYDAKFQGRVTITRDTSASTAYMELSSLRSEDTAVYYCARDHYGRYFYDVWGQGTLVTVSS VL: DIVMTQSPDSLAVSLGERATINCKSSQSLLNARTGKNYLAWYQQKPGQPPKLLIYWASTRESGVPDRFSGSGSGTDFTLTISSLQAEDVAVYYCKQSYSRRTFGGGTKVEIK
Reply: not met
